Test system: cFMS (Homo sapiens)
Construct: THP-1 cells (human acute monocytic leukemia cell line) were serum-starved for 4 hours; endogenous in cells
Sequence (P07333 20-972): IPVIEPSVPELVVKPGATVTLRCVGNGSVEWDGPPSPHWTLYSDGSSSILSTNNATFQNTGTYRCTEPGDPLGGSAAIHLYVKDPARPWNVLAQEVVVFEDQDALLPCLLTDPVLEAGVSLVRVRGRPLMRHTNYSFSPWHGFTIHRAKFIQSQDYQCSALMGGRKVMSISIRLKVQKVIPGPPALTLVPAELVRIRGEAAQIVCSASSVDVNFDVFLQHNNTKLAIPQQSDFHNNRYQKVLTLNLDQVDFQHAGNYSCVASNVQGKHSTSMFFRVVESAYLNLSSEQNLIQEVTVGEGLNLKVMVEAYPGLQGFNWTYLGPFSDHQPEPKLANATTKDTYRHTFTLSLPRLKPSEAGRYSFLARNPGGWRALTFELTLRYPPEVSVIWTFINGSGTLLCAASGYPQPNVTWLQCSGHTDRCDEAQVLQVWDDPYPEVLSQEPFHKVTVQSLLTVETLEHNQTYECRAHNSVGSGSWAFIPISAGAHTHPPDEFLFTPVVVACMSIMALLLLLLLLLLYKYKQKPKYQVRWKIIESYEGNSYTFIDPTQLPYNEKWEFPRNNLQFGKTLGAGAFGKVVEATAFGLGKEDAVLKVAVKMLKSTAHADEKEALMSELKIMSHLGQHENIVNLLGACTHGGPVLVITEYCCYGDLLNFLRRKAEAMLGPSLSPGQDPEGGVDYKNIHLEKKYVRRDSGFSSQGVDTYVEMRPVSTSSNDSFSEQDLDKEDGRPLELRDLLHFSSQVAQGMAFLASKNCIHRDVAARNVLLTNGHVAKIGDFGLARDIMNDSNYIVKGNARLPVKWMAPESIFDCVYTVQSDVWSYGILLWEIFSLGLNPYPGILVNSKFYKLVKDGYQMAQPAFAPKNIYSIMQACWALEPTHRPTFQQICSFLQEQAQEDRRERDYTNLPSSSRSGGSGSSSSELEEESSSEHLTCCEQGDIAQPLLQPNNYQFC
Experiment: cFMS Cell-Based Assay (Example C)
Experimental context: averaged IC50; phospho-cFMS in THP-1 cells stimulated with 250 ng/mL recombinant human MCSF; read-out: cFMS Cell ELISA IC50
Endpoint label: pIC50
Give bare numbers, as −log10 of the molar value.

Reference set (3 entries):
Compound: Cc1nc(Cn2nc(C)c3c(NC(=O)c4cnc5cc(OCCN6CCN(C)CC6)ccn45)cccc32)cs1 [Example 88]
Endpoint label: pIC50
Recorded number: 7.81

Compound: NC(=O)c1ccc2ncc(C(=O)Nc3cccc4c3cnn4Cc3ccccc3)n2c1 [Example 160]
Endpoint label: pIC50
Recorded number: 6.88

Compound: Cc1cccc(Cn2nc(C)c3c(NC(=O)c4cnc5cc(CCO)ccn45)cccc32)n1 [Example 73]
Endpoint label: pIC50
Recorded number: 7.20

API: the following record is the query input.
In: Given the entry Cc1nn(Cc2cc(C)n(C(C)C)n2)c2cccc(NC(=O)c3cnc4cc(OCCN5CCCN(C)CC5)ccn34)c12 [Example 11] , report its measured pIC50.
Out: 7.58

---

Please go through the items and note down their pIC50.
Test system: PDGFR beta (Homo sapiens, UniProt P09619)
Construct: endogenous in cells; host or cells: HS27 human fibroblast cell line
Sequence (P09619 33-1106): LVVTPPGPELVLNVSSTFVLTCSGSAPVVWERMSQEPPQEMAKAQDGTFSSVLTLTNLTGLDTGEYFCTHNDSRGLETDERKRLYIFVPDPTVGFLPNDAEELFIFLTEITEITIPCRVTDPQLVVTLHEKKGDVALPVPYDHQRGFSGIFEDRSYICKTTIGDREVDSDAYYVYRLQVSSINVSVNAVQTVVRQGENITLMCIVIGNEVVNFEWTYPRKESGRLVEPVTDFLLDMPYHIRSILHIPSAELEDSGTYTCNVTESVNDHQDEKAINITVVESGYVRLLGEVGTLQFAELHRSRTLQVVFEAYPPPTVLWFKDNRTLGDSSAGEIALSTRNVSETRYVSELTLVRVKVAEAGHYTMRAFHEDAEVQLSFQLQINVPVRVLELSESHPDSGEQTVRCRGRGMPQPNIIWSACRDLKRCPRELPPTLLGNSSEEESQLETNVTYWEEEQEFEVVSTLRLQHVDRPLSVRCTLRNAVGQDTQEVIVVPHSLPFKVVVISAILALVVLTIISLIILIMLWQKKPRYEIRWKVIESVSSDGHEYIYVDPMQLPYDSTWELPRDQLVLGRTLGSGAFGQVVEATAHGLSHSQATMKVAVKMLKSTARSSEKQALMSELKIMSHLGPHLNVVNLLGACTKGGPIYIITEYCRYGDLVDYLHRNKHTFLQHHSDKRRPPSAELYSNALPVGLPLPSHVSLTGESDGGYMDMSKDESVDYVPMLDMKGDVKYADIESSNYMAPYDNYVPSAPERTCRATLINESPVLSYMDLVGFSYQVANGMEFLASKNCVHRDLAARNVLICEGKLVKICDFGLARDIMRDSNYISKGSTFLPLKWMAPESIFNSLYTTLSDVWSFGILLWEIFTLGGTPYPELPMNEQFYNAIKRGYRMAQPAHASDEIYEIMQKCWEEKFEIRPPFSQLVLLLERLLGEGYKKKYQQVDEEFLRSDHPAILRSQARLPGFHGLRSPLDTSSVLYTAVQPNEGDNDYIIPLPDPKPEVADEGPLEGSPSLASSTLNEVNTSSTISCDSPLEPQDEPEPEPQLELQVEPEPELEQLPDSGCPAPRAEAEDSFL
Experiment: Phospho PDGFR LICOR Cell Assay (Example B)
Assay type: cell-based
Experimental context: averaged IC50; PDGFR beta phosphorylation in HS27 human fibroblast cell line, PDGF-BB stimulation 10 minutes, normalized to total ERK
Where a name gives a salt, the structure may show the parent alone.
Give bare numbers, as −log10 of the molar value.

Reference set (6 entries):
Compound: Cc1nn(Cc2csc(C(C)C)n2)c2cccc(NC(=O)c3cnc4cc(OCCN5CC6(CN(C)C6)C5)ccn34)c12 [Example 13]
pIC50: 7.95

Compound: Cc1nn(Cc2cccc(C(C)C)n2)c2cccc(NC(=O)c3cnc4cc(OCCN5CCN(C)[C@H](C)C5)ccn34)c12 [Example 28]
pIC50: 8.00

Compound: COCCOc1ccn2c(C(=O)Nc3cccc4c3cnn4CC3CCCN(C(=O)OC(C)(C)C)C3)cnc2c1 (stereo not shown) [Example 116]
pIC50: 7.27

Compound: CN1CCN(CCOc2ccn3c(C(=O)Nc4c(Cl)ccc5c4cnn5Cc4cccc(C(F)(F)F)c4)cnc3c2)CC1 [Example 100]
pIC50: 8.22

Compound: CCOc1cccc(Cn2nc(C)c3c(NC(=O)c4cnc5cc(OCCN6CCN(C)CC6)ccn45)cccc32)n1 [Example 86]
pIC50: 6.93

Compound: Cc1cccc(Cn2nc(C)c3c(NC(=O)c4cnc5cc(CCN6CCN(C)CC6)ccn45)cccc32)n1 [Example 78]
pIC50: 5.47

In: Given the entry Cc1nn(Cc2cccc(C3CC3)n2)c2cccc(NC(=O)c3cnc4cc(OCCN5CCN(C)[C@H](C)C5)ccn34)c12 [Example 27, dihydrochloride] , report its measured pIC50.
Out: 7.14

---

Test system: c-KIT (Homo sapiens, UniProt P10721)
Construct: M-07e cells (human acute megakaryoblastic leukemia cell line) were serum-starved for 4 hours; endogenous in cells
Sequence (P10721 26-976): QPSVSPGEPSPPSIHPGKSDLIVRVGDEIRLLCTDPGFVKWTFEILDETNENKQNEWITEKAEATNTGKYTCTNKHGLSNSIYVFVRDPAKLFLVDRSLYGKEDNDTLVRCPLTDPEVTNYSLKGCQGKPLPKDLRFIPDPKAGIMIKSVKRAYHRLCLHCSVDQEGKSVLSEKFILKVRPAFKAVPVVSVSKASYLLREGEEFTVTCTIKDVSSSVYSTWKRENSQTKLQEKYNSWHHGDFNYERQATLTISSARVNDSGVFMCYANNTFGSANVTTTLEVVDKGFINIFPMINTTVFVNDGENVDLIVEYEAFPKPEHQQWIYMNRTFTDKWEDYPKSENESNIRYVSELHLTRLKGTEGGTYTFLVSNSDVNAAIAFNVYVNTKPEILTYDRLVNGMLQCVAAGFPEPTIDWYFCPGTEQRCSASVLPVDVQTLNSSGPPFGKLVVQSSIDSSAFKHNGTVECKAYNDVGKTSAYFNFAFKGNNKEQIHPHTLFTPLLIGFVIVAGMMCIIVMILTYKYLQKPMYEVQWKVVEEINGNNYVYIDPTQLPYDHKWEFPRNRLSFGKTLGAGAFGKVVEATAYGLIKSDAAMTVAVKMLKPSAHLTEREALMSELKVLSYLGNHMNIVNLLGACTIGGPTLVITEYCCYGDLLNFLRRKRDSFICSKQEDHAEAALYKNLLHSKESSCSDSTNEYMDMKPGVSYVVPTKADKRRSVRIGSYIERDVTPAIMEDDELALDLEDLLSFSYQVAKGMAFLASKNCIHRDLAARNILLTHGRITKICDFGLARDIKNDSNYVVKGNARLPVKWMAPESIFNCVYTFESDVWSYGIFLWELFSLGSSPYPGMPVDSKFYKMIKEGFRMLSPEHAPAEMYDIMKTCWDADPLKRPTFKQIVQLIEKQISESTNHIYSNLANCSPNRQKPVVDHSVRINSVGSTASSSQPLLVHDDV
Experiment: c-KIT Cell-Based Assay (Example D)
Experimental context: averaged IC50; phospho-c-KIT in M-07e cells stimulated with 150 ng/ml recombinant human SCF; read-out: cKIT Cell ELISA IC50
Counter-ions that a name gives are not always drawn.
IC50 strictly less than 50 nM = satisfied. Otherwise not satisfied.

Would you please look over these solved cases?
Compound: CCOc1cccc(Cn2ncc3c(NC(=O)c4cnc5cc(OCCN6CCN(C)CC6)ccn45)cccc32)n1
Test system: c-KIT (Homo sapiens, UniProt P10721)
Classification: satisfied
--
Compound: Cc1nn(Cc2cccc(C(C)C)n2)c2cccc(NC(=O)c3cnc4cc(OCCN5CCN(C)CC5)ccn34)c12
Test system: c-KIT (Homo sapiens, UniProt P10721)
Classification: satisfied
--
Compound: Cc1nn(Cc2csc(C(C)C)n2)c2cccc(NC(=O)c3cnc4cc(OCCN5CCN(C(C)C)CC5)ccn34)c12
Test system: c-KIT (Homo sapiens, UniProt P10721)
Classification: not satisfied
--
Compound: Cc1nn(Cc2cc(C)n(C(C)C)n2)c2cccc(NC(=O)c3cnc4cc(OCCN5C[C@@H](C)N(C)[C@@H](C)C5)ccn34)c12
Test system: c-KIT (Homo sapiens, UniProt P10721)
Classification: not satisfied
--
Compound: CC(C)N1CCN(CCOc2ccn3c(C(=O)Nc4cccc5c4c(F)nn5Cc4cccc(C5CC5)n4)cnc3c2)CC1
Test system: c-KIT (Homo sapiens, UniProt P10721)
Classification: satisfied
--
Compound: Cc1nn(Cc2ccn(C(C)C)n2)c2cccc(NC(=O)c3cnc4cc(OCCN5CCN(C)CC5)ccn34)c12 [Example 48, bis hydrochloride]
Test system: c-KIT (Homo sapiens, UniProt P10721)
Classification: satisfied

In: Confirm or reject: IC50 of "Cc1nn(Cc2cccc(C(C)(C)C)n2)c2cccc(NC(=O)c3cnc4cc(OCCN5CCN(C)[C@@H](C)C5)ccn34)c12" lies strictly below 50 nM
Out: not satisfied

In: Same again, this time with COCCOc1ccn2c(C(=O)Nc3cccc4c3cnn4CC3CCCN(C(=O)OC(C)(C)C)C3)cnc2c1 (centres unmarked)
Out: not satisfied

In: Same again, this time with "Cc1cccc(Cn2nc(C)c3c(NC(=O)c4cnc5cc(O)ccn45)cccc32)n1"
Out: not satisfied

In: Same again, this time with "O=C(Nc1cccc2c1cnn2Cc1ccccn1)c1cnc2ccccn12"
Out: not satisfied

In: Same again, this time with "COCCOc1ccn2c(C(=O)Nc3cccc4c3cnn4CC3CCOCC3)cnc2c1"
Out: not satisfied

---

Test system: c-KIT (Homo sapiens, UniProt P10721)
Construct: M-07e cells (human acute megakaryoblastic leukemia cell line) were serum-starved for 4 hours; endogenous in cells; host or cells: M-07e cells (human acute megakaryoblastic leukemia cell line)
Experiment: c-KIT Cell-Based Assay (Example D)
Experimental context: averaged IC50; phospho-c-KIT in M-07e cells stimulated with 150 ng/ml recombinant human SCF; read-out: cKIT Cell ELISA IC50
Structures can show the parent of a compound that is named as a salt.
Endpoint label: IC50 (nM)
Give bare numbers, in nM.

Go through the items and report each one's IC50.
1. Cc1cccc(Cn2nc(C)c3c(NC(=O)c4cnc5cc(C6=CCNCC6)ccn45)cccc32)n1 [Example 51, hydrochloride]
2. Cc1nn(Cc2cccc(C3CC3)n2)c2cccc(NC(=O)c3cnc4cc(OCCN5CCN(C)[C@H](C)C5)ccn34)c12 [Example 27, dihydrochloride]
3. CCOc1ccn2c(C(=O)Nc3cccc4c3cnn4Cc3ccccc3)cnc2c1
4. CN1CCN(CCOc2ccn3c(C(=O)Nc4c(Cl)ccc5c4cnn5Cc4cccc(C(F)(F)F)c4)cnc3c2)CC1

Out:
687
36.2
67.8
3.3

---

Please go through the items and note down their IC50.
Test system: c-KIT (Homo sapiens)
Construct: M-07e cells (human acute megakaryoblastic leukemia cell line) were serum-starved for 4 hours; endogenous in cells; host or cells: M-07e cells (human acute megakaryoblastic leukemia cell line)
Experiment: c-KIT Cell-Based Assay (Example D)
Experimental context: averaged IC50; phospho-c-KIT in M-07e cells stimulated with 150 ng/ml recombinant human SCF; read-out: cKIT Cell ELISA IC50
Give bare numbers, in nM.

Compound: Cc1cccc(Cn2nc(C)c3c(NC(=O)c4cnc5cc(-c6cn[nH]c6)ccn45)cccc32)n1
IC50 (nM): 146
--
Compound: COCCOc1ccn2c(C(=O)Nc3cccc4c3cnn4Cc3cccc(Cl)c3)cnc2c1
IC50 (nM): 3.7
--
Compound: Cc1nn(Cc2cccc(C3CC3)n2)c2cccc(NC(=O)c3cnc4cc(OCCN5CCN(C)C(C)(C)C5)ccn34)c12
IC50 (nM): 39.1
--
Compound: Cc1nn(Cc2cccc(C(F)(F)F)n2)c2cccc(NC(=O)c3cnc4cc(OCCN5CCN(C(C)C)CC5)ccn34)c12
IC50 (nM): 166
--
Compound: CC(C)N1CCN(CCOc2ccn3c(C(=O)Nc4cccc5c4c(Cl)nn5Cc4cccc(C5CC5)n4)cnc3c2)CC1
IC50 (nM): 46.6
--
Compound: COCCOc1ccn2c(C(=O)Nc3cccc4c3c(C)nn4CC3CC3)cnc2c1
IC50 (nM): 5000
--
Compound: O=C(Nc1cccc2c1cnn2Cc1ccccc1)c1cnc2cc(OCCN3CCOCC3)ccn12
IC50 (nM): 25.8
--
Compound: COCCOc1ccn2c(C(=O)Nc3cccc4c3cnn4Cc3ccc(OC)cc3)cnc2c1
IC50 (nM): 8.7

Go through the items and report each one's IC50.
1. CC(=O)c1ccn2c(C(=O)Nc3cccc4c3c(C)nn4Cc3cccc(C)n3)cnc2c1
2. O=C(Nc1cccc2c1cnn2Cc1ccccc1)c1cnc2cc(C(O)CO)ccn12 (stereo not shown)
3. O=C(Nc1cccc2c1cnn2Cc1ccccc1)c1cnc2cc(OCC(O)CO)ccn12 (stereo not shown)
4. CNC(=O)c1cccc(Cn2ncc3c(NC(=O)c4cnc5cc(OCCOC)ccn45)cccc32)c1
5. CC(=O)c1ccn2c(C(=O)Nc3cccc4c3cnn4Cc3ccccc3)cnc2c1
6. COCCOc1ccn2c(C(=O)Nc3cccc4c3cnn4Cc3cccnc3C)cnc2c1
7. COCCOc1ccn2c(C(=O)Nc3cccc4c3cnn4Cc3cccnc3)cnc2c1

Out:
1. 4320
2. 232
3. 30.1
4. 78.2
5. 36.9
6. 581
7. 73.1

The origin of these recorded values is patent US10669269B2.
